tested on: 519858-162-T-J1-PDC spheroid growth inhibition; assay: Anticancer human tumor 519858-162-T-J1-PDC patient-derived colon adenocarcinoma cell line growth inhibition [TAK]; settings: second compound 0.949 µM; first compound 0.1 µM; stronger effect = lower value; spheroids with HUVEC and MSC
List of viability, T/C values.
Express the result in % but write the number alone.

Missing value: viability, T/C, 519858-162-T-J1-PDC spheroid growth inhibition, entry Cc1nc(NC(=O)N2CCCC2C(N)=O)sc1-c1ccnc(C(C)(C)C(F)(F)F)c1 (stereo not drawn) + CC(C)NCC(C(=O)N1CCN(c2ncnc3c2C(C)CC3O)CC1)c1ccc(Cl)cc1 . Fill in?
94.8

API: value(readout= viability, T/C, system= 519858-162-T-J1-PDC spheroid growth inhibition, query= CC(C)n1nc(-c2ccc3oc(N)nc3c2)c2c(N)ncnc21 + CC(C)NCC(C(=O)N1CCN(c2ncnc3c2C(C)CC3O)CC1)c1ccc(Cl)cc1 )
71.1

Return viability, T/C measured with 519858-162-T-J1-PDC spheroid growth inhibition given this compound: CC(C)(C)c1nc(-c2cccc(NS(=O)(=O)c3c(F)cccc3F)c2F)c(-c2ccnc(N)n2)s1 + CC(C)NCC(C(=O)N1CCN(c2ncnc3c2C(C)CC3O)CC1)c1ccc(Cl)cc1
115

====

test system: 519858-162-T-J1-PDC spheroid growth inhibition; assay: Anticancer human tumor 519858-162-T-J1-PDC cell line growth inhibition [TAK]; conditions: second compound 3 µM; first compound 0.316 µM; stronger effect = lower value; spheroids with HUVEC and MSC
Reported viability, T/C values follow for various compounds
Only the number, expressed in %, is required.

Field: example entries. Status: answers known.
* CC(C)(C)c1nc(-c2cccc(NS(=O)(=O)c3c(F)cccc3F)c2F)c(-c2ccnc(N)n2)s1 + CC(C)NCC(C(=O)N1CCN(c2ncnc3c2C(C)CC3O)CC1)c1ccc(Cl)cc1 | 116
* COc1c(OCCCN2CCOCC2)ccc2c3n(c(=NC(=O)c4cnc(N)nc4)nc12)CCN3 + CC(C)NCC(C(=O)N1CCN(c2ncnc3c2C(C)CC3O)CC1)c1ccc(Cl)cc1 | 51
* CCCS(=O)(=O)Nc1ccc(F)c(C(=O)c2c[nH]c3ncc(-c4ccc(Cl)cc4)cc23)c1F + CC(C)NCC(C(=O)N1CCN(c2ncnc3c2C(C)CC3O)CC1)c1ccc(Cl)cc1 | 106

Next item in the queue.
Which measured viability, T/C value corresponds to Cc1nc(NC(=O)N2CCCC2C(N)=O)sc1-c1ccnc(C(C)(C)C(F)(F)F)c1 (centres undefined) + CC(C)NCC(C(=O)N1CCN(c2ncnc3c2C(C)CC3O)CC1)c1ccc(Cl)cc1 ?
76.9

====

Below, each entry is listed with its recorded viability, T/C.
tested on: 519858-162-T-J1-PDC spheroid growth inhibition; test: Anticancer human tumor 519858-162-T-J1-PDC cell line growth inhibition [TAK]; conditions: second compound 0.3 µM; first compound 0.1 µM; stronger effect = lower value; spheroids with HUVEC and MSC
Give the value in % but do not write % after it.

Below, each entry is followed by its recorded viability, T/C result.
* COc1c(OCCCN2CCOCC2)ccc2c3n(c(=NC(=O)c4cnc(N)nc4)nc12)CCN3 + CC(C)NCC(C(=O)N1CCN(c2ncnc3c2C(C)CC3O)CC1)c1ccc(Cl)cc1 | 57.2
* CC(C)CC(NC(=O)CNC(=O)c1cc(Cl)ccc1Cl)B1OC(=O)CC(CC(=O)O)(C(=O)O)O1 (stereo not drawn) + CC(C)NCC(C(=O)N1CCN(c2ncnc3c2C(C)CC3O)CC1)c1ccc(Cl)cc1 | 59.7

Field request: viability, T/C | item: COC1CC2CCC(C)C(O)(O2)C(=O)C(=O)N2CCCCC2C(=O)OC(C(C)CC2CCC(OCCO)C(OC)C2)CC(=O)C(C)C=C(C)C(O)C(OC)C(=O)C(C)CC(C)C=CC=CC=C1C (stereo not drawn) + CC(C)NCC(C(=O)N1CCN(c2ncnc3c2C(C)CC3O)CC1)c1ccc(Cl)cc1
84.6

====

Here the recorded viability, T/C is given for each entry.
tested on: 519858-162-T-J1-PDC spheroid growth inhibition; assay: Anticancer human tumor 519858-162-T-J1-PDC cell line growth inhibition [TAK]; details: second compound 9.49 µM; first compound 1 µM; stronger effect = lower value; spheroids with HUVEC and MSC;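 further: each agent tested in combination with TAK-243 or ipatasertib; spheroids exposed to drugs for 7 days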
State just the number; it will be interpreted in %.

Answered cases to consult:
* Cc1nc(NC(=O)N2CCCC2C(N)=O)sc1-c1ccnc(C(C)(C)C(F)(F)F)c1 (centres undefined) + CC(C)NCC(C(=O)N1CCN(c2ncnc3c2C(C)CC3O)CC1)c1ccc(Cl)cc1 | 74.4
* CCCS(=O)(=O)Nc1ccc(F)c(C(=O)c2c[nH]c3ncc(-c4ccc(Cl)cc4)cc23)c1F + CC(C)NCC(C(=O)N1CCN(c2ncnc3c2C(C)CC3O)CC1)c1ccc(Cl)cc1 | 103
* CC(C)(C)c1nc(-c2cccc(NS(=O)(=O)c3c(F)cccc3F)c2F)c(-c2ccnc(N)n2)s1 + CC(C)NCC(C(=O)N1CCN(c2ncnc3c2C(C)CC3O)CC1)c1ccc(Cl)cc1 | 91.6

Let us examine a further case.
Looking for the measured viability, T/C of COc1c(OCCCN2CCOCC2)ccc2c3n(c(=NC(=O)c4cnc(N)nc4)nc12)CCN3 + CC(C)NCC(C(=O)N1CCN(c2ncnc3c2C(C)CC3O)CC1)c1ccc(Cl)cc1 , can you help?
56.4

====

viability, T/C reference
system: 519858-162-T-J1-PDC spheroid growth inhibition; experiment: Anticancer human tumor 519858-162-T-J1-PDC cell line growth inhibition [TAK]; details: second compound 0.949 µM; first compound 0.01 µM; stronger effect = lower value; spheroids with HUVEC and MSC;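 further: each agent tested in combination with TAK-243 or ipatasertib; spheroids exposed to drugs for 7 days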
Use % as the unit, but write only the number.

A selection of reference data follows.
- COc1c(OCCCN2CCOCC2)ccc2c3n(c(=NC(=O)c4cnc(N)nc4)nc12)CCN3 + CC(C)NCC(C(=O)N1CCN(c2ncnc3c2C(C)CC3O)CC1)c1ccc(Cl)cc1: 75.1
- CC(C)CC(NC(=O)C(Cc1ccccc1)NC(=O)c1cnccn1)B(O)O (stereo not given) + CC(C)NCC(C(=O)N1CCN(c2ncnc3c2C(C)CC3O)CC1)c1ccc(Cl)cc1: 69.7
- CC(C)n1nc(-c2ccc3oc(N)nc3c2)c2c(N)ncnc21 + CC(C)NCC(C(=O)N1CCN(c2ncnc3c2C(C)CC3O)CC1)c1ccc(Cl)cc1: 83.8
- COC1CC2CCC(C)C(O)(O2)C(=O)C(=O)N2CCCCC2C(=O)OC(C(C)CC2CCC(OCCO)C(OC)C2)CC(=O)C(C)C=C(C)C(O)C(OC)C(=O)C(C)CC(C)C=CC=CC=C1C (stereo not given) + CC(C)NCC(C(=O)N1CCN(c2ncnc3c2C(C)CC3O)CC1)c1ccc(Cl)cc1: 85.7

# value lookup — system 519858-162-T-J1-PDC spheroid growth inhibition, readout viability, T/C, item CC(C)CC(NC(=O)CNC(=O)c1cc(Cl)ccc1Cl)B1OC(=O)CC(CC(=O)O)(C(=O)O)O1 (stereo not given) + CC(C)NCC(C(=O)N1CCN(c2ncnc3c2C(C)CC3O)CC1)c1ccc(Cl)cc1
81.3

====

system: 519858-162-T-J1-PDC spheroid growth inhibition; test: Anticancer human tumor 519858-162-T-J1-PDC cell line growth inhibition [TAK]; conditions: second compound 0.949 µM; first compound 0.1 µM; stronger effect = lower value; spheroids with HUVEC and MSC;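 further: each agent tested in combination with TAK-243 or ipatasertib; spheroids exposed to drugs for 7 days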
Form field: viability, T/C (one value per entry).
Entry rule: numbers only, all in %.

• CC(C)CC(NC(=O)CNC(=O)c1cc(Cl)ccc1Cl)B1OC(=O)CC(CC(=O)O)(C(=O)O)O1 (stereo not drawn) + CC(C)NCC(C(=O)N1CCN(c2ncnc3c2C(C)CC3O)CC1)c1ccc(Cl)cc1 = 67.7
• COC1CC2CCC(C)C(O)(O2)C(=O)C(=O)N2CCCCC2C(=O)OC(C(C)CC2CCC(OCCO)C(OC)C2)CC(=O)C(C)C=C(C)C(O)C(OC)C(=O)C(C)CC(C)C=CC=CC=C1C (stereo not drawn) + CC(C)NCC(C(=O)N1CCN(c2ncnc3c2C(C)CC3O)CC1)c1ccc(Cl)cc1 = 71.6

Now for a further compound.
Data request, read-out viability, T/C, for COc1c(OCCCN2CCOCC2)ccc2c3n(c(=NC(=O)c4cnc(N)nc4)nc12)CCN3 + CC(C)NCC(C(=O)N1CCN(c2ncnc3c2C(C)CC3O)CC1)c1ccc(Cl)cc1
62.2

====

test system: 519858-162-T-J1-PDC spheroid growth inhibition; experiment: Anticancer human tumor 519858-162-T-J1-PDC cell line growth inhibition [TAK]; conditions: second compound 30 µM; first compound 0.1 µM; stronger effect = lower value; spheroids with HUVEC and MSC;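 further: each agent tested in combination with TAK-243 or ipatasertib; spheroids exposed to drugs for 7 days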
endpointLabel: viability, T/C (%)
State just the number; it will be interpreted in %.

Use the examples below as a reference point.
- COc1c(OCCCN2CCOCC2)ccc2c3n(c(=NC(=O)c4cnc(N)nc4)nc12)CCN3 + CC(C)NCC(C(=O)N1CCN(c2ncnc3c2C(C)CC3O)CC1)c1ccc(Cl)cc1: 59.1
- CC(C)CC(NC(=O)CNC(=O)c1cc(Cl)ccc1Cl)B1OC(=O)CC(CC(=O)O)(C(=O)O)O1 (stereo not drawn) + CC(C)NCC(C(=O)N1CCN(c2ncnc3c2C(C)CC3O)CC1)c1ccc(Cl)cc1: 78.6

Moving on to another molecule below.
Tell me the measured viability, T/C of CC(C)(C)c1nc(-c2cccc(NS(=O)(=O)c3c(F)cccc3F)c2F)c(-c2ccnc(N)n2)s1 + CC(C)NCC(C(=O)N1CCN(c2ncnc3c2C(C)CC3O)CC1)c1ccc(Cl)cc1 , please.
86.9

These entries and their values trace back to PubChem BioAssay AID2060354.
